Molecular target: CYP2D6 (Homo sapiens (Human))
Sequence (P10635 whole entry): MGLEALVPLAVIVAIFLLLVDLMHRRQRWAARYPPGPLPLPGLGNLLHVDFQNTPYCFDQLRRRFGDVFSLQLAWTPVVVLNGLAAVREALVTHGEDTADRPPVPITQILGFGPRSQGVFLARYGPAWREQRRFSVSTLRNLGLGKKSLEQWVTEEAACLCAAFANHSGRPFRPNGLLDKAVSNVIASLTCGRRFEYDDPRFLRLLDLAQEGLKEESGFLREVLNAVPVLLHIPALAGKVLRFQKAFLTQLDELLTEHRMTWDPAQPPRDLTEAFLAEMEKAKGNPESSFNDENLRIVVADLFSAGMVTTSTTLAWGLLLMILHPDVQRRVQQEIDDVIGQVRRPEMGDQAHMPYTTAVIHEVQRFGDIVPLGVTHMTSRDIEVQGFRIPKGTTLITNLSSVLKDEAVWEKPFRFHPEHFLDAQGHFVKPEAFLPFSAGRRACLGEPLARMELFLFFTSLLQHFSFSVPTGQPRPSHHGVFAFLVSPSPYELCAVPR
Experiment: CYP inhibition potential, CYP2D6
Assay type: in vitro ADME
Description: The ancillary pharmacology profiles of the SHI-1:2 carbamate analogs were also gathered to investigate off-target activities (Table 12).
Recorded % CYP Inhibition @ 10 μM 2D6 values for a group of molecules are listed next.
observationType: % CYP Inhibition @ 10 μM 2D6 (%)

| molecule | measurement |
| --- | --- |
| Nc1ccc(-c2ccccc2)cc1NC(=O)c1ccc(CNC(=O)C2CCCCC2)cc1 [Example 14i] | 17 |
| Nc1ccc(-c2ccccc2)cc1NC(=O)c1ccc(CNC(=O)OCc2ccccn2)cc1 [Example 14b] | 29 |
| COC(=O)NCc1ccc(C(=O)Nc2cc(-c3ccccc3)ccc2N)cc1 [Example 14f] | 49 |
| CCC(=O)NCc1ccc(C(=O)Nc2cc(-c3ccccc3)ccc2N)cc1 [Example 14h] | 38 |

---

target: histone deacetylase, subtype 1 (HDAC1) (Homo sapiens (Human)); assay: HDAC1-Flag in vitro deacetylation assay; type: biochemical; conditions: IP = inflection point; read-out: HDAC1 IP (inflection point)
Sequence (Q13547 whole entry): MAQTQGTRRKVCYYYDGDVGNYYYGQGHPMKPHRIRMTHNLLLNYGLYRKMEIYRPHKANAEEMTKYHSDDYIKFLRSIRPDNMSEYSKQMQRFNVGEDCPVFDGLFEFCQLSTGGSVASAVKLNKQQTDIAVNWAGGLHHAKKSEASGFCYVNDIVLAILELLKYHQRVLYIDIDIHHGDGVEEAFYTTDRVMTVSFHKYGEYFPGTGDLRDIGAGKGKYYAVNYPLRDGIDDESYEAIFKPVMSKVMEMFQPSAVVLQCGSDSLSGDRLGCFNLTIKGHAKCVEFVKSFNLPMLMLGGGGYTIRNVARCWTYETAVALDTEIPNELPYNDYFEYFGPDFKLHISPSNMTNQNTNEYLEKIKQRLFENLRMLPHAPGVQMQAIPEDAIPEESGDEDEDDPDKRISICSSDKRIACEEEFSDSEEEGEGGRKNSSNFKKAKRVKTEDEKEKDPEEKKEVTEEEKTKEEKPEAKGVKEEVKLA
Recorded IC50 values for a group of compounds are listed next.

| compound | IC50 |
| --- | --- |
| O=C(Nc1cc(-c2ccccc2)ccc1O)c1ccc(CNc2ccncc2)cc1 | 9.9 nM |
| CC(C)COC(=O)NCc1ccc(C(=O)Nc2cc(-c3ccccc3)ccc2N)cc1 | 45 nM |
| Nc1ccc(-c2ccccc2)cc1NC(=O)c1ccc(CNC(=O)Cc2ccncc2)cc1 | 15 nM |
| O=C(NCc1ccc(C(=O)Nc2cc(-c3cccnc3)ccc2O)cc1)OCc1cccnc1 | 16 nM |
| CCN(C)Cc1ccc(C(=O)Nc2cc(-c3ccccc3)ccc2O)cc1 | 31 nM |
| O=C(NCc1ccc(C(=O)Nc2cc(-c3ccccc3)ccc2O)cc1)OCc1cccnc1 | 20 nM |
| CN(C)C1CCN(Cc2ccc(C(=O)Nc3cc(-c4ccccc4)ccc3O)cc2)C1 (stereo not drawn) | 50 nM |
| CCOC(=O)NCc1ccc(C(=O)Nc2cc(-c3cccs3)ccc2N)cc1 | 12 nM |
| CC(C)OC(=O)NCc1ccc(C(=O)Nc2cc(-c3cccs3)ccc2N)cc1 | 19 nM |
| Nc1ccc(-c2cccs2)cc1NC(=O)c1ccc(CNC(=O)Cc2ccncc2)cc1 | 18 nM |
| CC(C)(C)C(=O)NCc1ccc(C(=O)Nc2cc(-c3ccccc3)ccc2N)cc1 | 25 nM |
| CNCCN(C)Cc1ccc(C(=O)Nc2cc(-c3ccccc3)ccc2O)cc1 | 35 nM |
| O=C(Nc1cc(-c2ccccc2)ccc1O)c1ccc(CNCCCN2CCCC2)cc1 | 91 nM |
| Nc1ccc(-c2cccs2)cc1NC(=O)c1ccc(CNC(=O)C2CC2)cc1 | 15 nM |
| Nc1ccc(-c2cccs2)cc1NC(=O)c1ccc(CNC(=O)Oc2ccccc2)cc1 | 77 nM |
| O=C(Nc1cc(-c2ccccc2)ccc1O)c1ccc(CNCCCc2ccncc2)cc1 | 100 nM |
| Nc1ccc(-c2ccccc2)cc1NC(=O)c1ccc(CNC(=O)CCc2cccnc2)cc1 | 16 nM |
| O=C(Nc1cc(-c2ccccc2)ccc1O)c1ccc(CNCCn2cccn2)cc1 | 33 nM |

---

target: UniProtKB Q13547; assay: HDAC1-Flag in vitro deacetylation assay; format: biochemical; details: IP = inflection point; read-out: HDAC1 IP (inflection point)
pIC50: −log10 of the molar value.

| smilesEntry | pIC50 |
| --- | --- |
| CN(CCc1ccncc1)Cc1ccc(C(=O)Nc2cc(-c3ccccc3)ccc2O)cc1 | 7.48 |
| Nc1ccc(-c2ccccc2)cc1NC(=O)c1ccc(CNC(=O)C2CCCC2)cc1 | 7.68 |
| CN(Cc1ccccc1)Cc1ccc(C(=O)Nc2cc(-c3ccccc3)ccc2O)cc1 | 6.46 |
| CCCC(=O)NCc1ccc(C(=O)Nc2cc(-c3ccccc3)ccc2N)cc1 | 7.77 |
| COc1cccc(CNCc2ccc(C(=O)Nc3cc(-c4ccccc4)ccc3O)cc2)c1 | 5.37 |
| CCC(=O)NCc1ccc(C(=O)Nc2cc(-c3ccccc3)ccc2N)cc1 | 7.77 |
| CCCC(=O)NCc1ccc(C(=O)Nc2cc(-c3cccs3)ccc2N)cc1 | 7.92 |
| Nc1ccc(-c2ccccc2)cc1NC(=O)c1ccc(CN2C(=O)OC[C@@H]2Cc2ccccc2)cc1 | 7.02 |
| Nc1ccc(-c2ccccc2)cc1NC(=O)c1ccc(CNC(=O)C2CC2)cc1 | 7.82 |
| CC(C)(C)C(=O)NCc1ccc(C(=O)Nc2cc(-c3cccs3)ccc2N)cc1 | 7.80 |
| Nc1ccc(-c2cccs2)cc1NC(=O)c1ccc(CNC(=O)CCc2ccccc2)cc1 | 7.62 |
| CC(C)CCNCc1ccc(C(=O)Nc2cc(-c3ccccc3)ccc2O)cc1 | 7.00 |
| CC(C)(C)OC(=O)NCc1ccc(C(=O)Nc2cc(-c3ccccc3)ccc2O)cc1 | 7.15 |
| O=C(Nc1cc(-c2ccccc2)ccc1O)c1ccc(CNCCc2ccc(Br)cc2)cc1 | 5.74 |
| O=C(Nc1cc(-c2ccccc2)ccc1O)c1ccc(CNCCc2cccnc2)cc1 | 5.60 |
| CCN1CCC(CNCc2ccc(C(=O)Nc3cc(-c4ccccc4)ccc3O)cc2)CC1 | 7.19 |
| Nc1ccc(-c2ccccc2F)cc1NC(=O)c1ccc(CNc2ccncc2)cc1 | 7.64 |
| CN(Cc1ccc(C(=O)Nc2cc(-c3ccccc3)ccc2O)cc1)Cc1cnccn1 | 7.51 |
| CN(Cc1ccc(C(=O)Nc2cc(-c3ccccc3)ccc2O)cc1)c1ccncc1 | 7.89 |
| Cc1cscc1-c1ccc(N)c(NC(=O)c2ccc(CNc3ccncc3)cc2)c1 | 6.74 |
| Nc1ccc(-c2cccs2)cc1NC(=O)c1ccc(CNCC(=O)O)cc1 | 7.47 |
| CN(CCc1ccccc1)Cc1ccc(C(=O)Nc2cc(-c3ccccc3)ccc2O)cc1 | 6.47 |
| COC(=O)NCc1ccc(C(=O)Nc2cc(-c3ccccc3)ccc2N)cc1 | 7.77 |
| Nc1ccc(-c2ccccc2)cc1NC(=O)c1ccc(CNC(=O)OCc2ccccn2)cc1 | 7.70 |
| CC(C)C(=O)NCc1ccc(C(=O)Nc2cc(-c3cccs3)ccc2N)cc1 | 7.80 |
| O=C(Nc1cc(-c2ccccc2)ccc1O)c1ccc(CNCC2CC2)cc1 | 7.14 |
| O=C(Nc1cc(-c2ccccc2)ccc1O)c1ccc(CNCc2cccs2)cc1 | 5.68 |
| Nc1ccc(-c2ccccc2)cc1NC(=O)c1ccc(CNC(=O)Cc2cccnc2)cc1 | 6.85 |
| O=C(Nc1cc(-c2ccccc2)ccc1O)c1ccc(CNC2Cc3ccccc3C2)cc1 | 6.80 |
| CC(C)C(=O)NCc1ccc(C(=O)Nc2cc(-c3ccccc3)ccc2N)cc1 | 8.00 |
| Nc1ccc(-c2cccs2)cc1NC(=O)c1ccc(CNC(=O)OCc2ccccc2)cc1 | 7.28 |
| CC(C)OCCCNCc1ccc(C(=O)Nc2cc(-c3ccccc3)ccc2O)cc1 | 7.02 |
| CN(Cc1ccc(C(=O)Nc2cc(-c3ccccc3)ccc2N)cc1)c1ccncc1 | 8.00 |
| CN(C)CCNCc1ccc(C(=O)Nc2cc(-c3ccccc3)ccc2O)cc1 | 6.92 |
| CC(C)CC(=O)NCc1ccc(C(=O)Nc2cc(-c3cccs3)ccc2N)cc1 | 7.82 |

---

molecular target: histone deacetylase, subtype 1 (HDAC1) (Homo sapiens (Human)); experiment: HDAC1-Flag in vitro deacetylation assay; format: biochemical; conditions: means of n ≧ 2 experiments; read-out: HDAC1 IC50
Criterion: IC50 strictly less than 10 nM. Met: yes. Not met: no.

| molecule | labelValue |
| --- | --- |
| Nc1ccc(-c2ccccc2)cc1NC(=O)c1ccc(CNC(=O)CCc2cccnc2)cc1 [Example 14a] | no |
| CCOC(=O)NCc1ccc(C(=O)Nc2cc(-c3ccccc3)ccc2N)cc1 [Example 14e] | no |
| Nc1ccc(-c2ccccc2)cc1NC(=O)c1ccc(CNC(=O)OCc2ccccn2)cc1 [Example 14b] | yes |
| Nc1ccc(-c2ccccc2)cc1NC(=O)c1ccc(CNC(=O)C2CCCCC2)cc1 [Example 14i] | no |

---

biological target: UniProtKB Q13547; test: HDAC1-Flag in vitro deacetylation assay; type: biochemical; details: IP = inflection point; read-out: HDAC1 IP (inflection point)
Recorded IC50 values for a group of compounds are listed next.

| smilesEntry | IC50 |
| --- | --- |
| Nc1ccc(-c2cccs2)cc1NC(=O)c1ccc(CNC(=O)Cc2ccccc2)cc1 | 16 nM |
| CN(C)S(=O)(=O)NCc1ccc(C(=O)Nc2cc(-c3cccs3)ccc2N)cc1 | 17 nM |
| Nc1ccc(-c2ccccc2)cc1NC(=O)c1ccc(CNC(=O)C2CCCCC2)cc1 | 42 nM |
| Cc1c(CNCc2ccc(C(=O)Nc3cc(-c4ccccc4)ccc3N)cc2)cnn1C | 13 nM |
| CN1CCC(CN(C)Cc2ccc(C(=O)Nc3cc(-c4ccccc4)ccc3O)cc2)CC1 | 78 nM |
| Nc1ccc(-c2ccccc2)cc1NC(=O)c1ccc(CNC(=O)Oc2ccccc2)cc1 | 320 nM |
| Nc1ccc(-c2ccccc2)cc1NC(=O)c1ccc(CN2C(=O)OC[C@H]2c2ccccc2)cc1 | 58 nM |
| COC(=O)NCc1ccc(C(=O)Nc2cc(-c3cccs3)ccc2N)cc1 | 6 nM |
